target: IKZF1 (Homo sapiens, UniProt Q13422+Q96SW2); construct: host or cells: MM.1S cells; experiment: In Cell Western of IKZF1 protein expression level in MM.1S cells; assay type: cell-based; conditions: IKZF1, MM.1S cells, 24 hours
Sequence (Q13422 whole entry): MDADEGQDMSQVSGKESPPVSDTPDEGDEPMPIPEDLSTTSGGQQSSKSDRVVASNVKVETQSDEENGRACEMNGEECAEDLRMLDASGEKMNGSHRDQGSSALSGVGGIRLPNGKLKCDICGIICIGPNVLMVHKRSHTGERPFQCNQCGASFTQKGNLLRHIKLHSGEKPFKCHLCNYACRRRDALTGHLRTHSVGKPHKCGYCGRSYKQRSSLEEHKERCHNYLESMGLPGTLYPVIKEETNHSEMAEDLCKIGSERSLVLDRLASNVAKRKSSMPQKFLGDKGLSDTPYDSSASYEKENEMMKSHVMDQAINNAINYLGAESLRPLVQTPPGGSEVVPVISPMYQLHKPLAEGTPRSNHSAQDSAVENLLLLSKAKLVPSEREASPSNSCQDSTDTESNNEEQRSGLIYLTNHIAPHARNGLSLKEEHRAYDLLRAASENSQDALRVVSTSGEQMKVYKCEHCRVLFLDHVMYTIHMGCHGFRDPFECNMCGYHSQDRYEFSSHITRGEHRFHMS
Sequence (Q96SW2 whole entry): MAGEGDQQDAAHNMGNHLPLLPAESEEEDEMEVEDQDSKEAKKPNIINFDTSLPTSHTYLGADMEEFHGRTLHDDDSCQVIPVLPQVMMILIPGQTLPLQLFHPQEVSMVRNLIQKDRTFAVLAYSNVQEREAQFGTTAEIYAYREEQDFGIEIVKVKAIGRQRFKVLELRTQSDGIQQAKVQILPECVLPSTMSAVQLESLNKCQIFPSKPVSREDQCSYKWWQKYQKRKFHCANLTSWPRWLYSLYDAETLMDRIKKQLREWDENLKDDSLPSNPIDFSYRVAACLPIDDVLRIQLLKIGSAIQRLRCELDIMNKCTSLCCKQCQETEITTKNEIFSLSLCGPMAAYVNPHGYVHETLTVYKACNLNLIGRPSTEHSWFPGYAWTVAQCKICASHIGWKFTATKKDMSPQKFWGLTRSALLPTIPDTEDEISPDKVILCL
Sequence (Q16531 whole entry partner): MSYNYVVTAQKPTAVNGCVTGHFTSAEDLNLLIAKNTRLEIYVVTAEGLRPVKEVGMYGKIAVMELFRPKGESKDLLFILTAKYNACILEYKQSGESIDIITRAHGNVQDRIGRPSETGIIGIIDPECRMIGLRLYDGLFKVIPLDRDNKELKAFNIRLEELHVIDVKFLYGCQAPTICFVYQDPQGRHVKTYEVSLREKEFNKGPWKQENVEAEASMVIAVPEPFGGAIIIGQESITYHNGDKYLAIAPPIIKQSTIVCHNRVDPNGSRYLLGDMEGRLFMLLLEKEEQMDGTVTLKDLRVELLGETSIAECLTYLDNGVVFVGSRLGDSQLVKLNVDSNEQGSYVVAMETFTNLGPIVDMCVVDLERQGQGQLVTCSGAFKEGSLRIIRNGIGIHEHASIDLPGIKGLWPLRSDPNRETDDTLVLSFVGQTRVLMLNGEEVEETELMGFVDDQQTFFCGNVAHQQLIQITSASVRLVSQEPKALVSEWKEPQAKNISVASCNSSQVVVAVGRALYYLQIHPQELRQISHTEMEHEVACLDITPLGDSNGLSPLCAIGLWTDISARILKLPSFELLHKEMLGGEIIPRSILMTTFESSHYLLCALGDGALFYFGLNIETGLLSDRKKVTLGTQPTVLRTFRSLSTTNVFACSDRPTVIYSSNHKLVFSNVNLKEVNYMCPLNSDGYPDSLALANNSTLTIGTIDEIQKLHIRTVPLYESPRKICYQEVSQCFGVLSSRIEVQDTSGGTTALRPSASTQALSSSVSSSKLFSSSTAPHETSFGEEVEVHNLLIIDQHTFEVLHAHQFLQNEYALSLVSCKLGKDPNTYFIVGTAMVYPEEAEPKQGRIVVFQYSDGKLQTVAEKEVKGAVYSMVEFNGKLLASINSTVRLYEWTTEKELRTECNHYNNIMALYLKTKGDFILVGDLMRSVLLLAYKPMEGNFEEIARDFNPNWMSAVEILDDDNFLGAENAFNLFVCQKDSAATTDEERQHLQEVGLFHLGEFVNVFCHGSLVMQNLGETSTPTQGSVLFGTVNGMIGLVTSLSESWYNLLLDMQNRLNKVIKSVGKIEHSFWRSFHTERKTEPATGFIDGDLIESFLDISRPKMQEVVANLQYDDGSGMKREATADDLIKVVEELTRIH
Counter-ions that a name gives are not always drawn.
Parameter measured: DC50 (nM)

// worked examples, DC50 included
CC(C)(O)c1cc2nc([C@H]3CC[C@H](CN4CCN(CC(=O)Nc5ccc6c(C7CCC(=O)NC7=O)noc6c5)CC4)CC3)sc2cc1NC(=O)c1cccc(C(F)(F)F)n1 (stereo partly drawn) [Formate of WX026]; 5.64
CN(CCCOCCCc1ccc2c(ccc3occ(C4CCC(=O)NC4=O)c32)c1)C[C@H]1CC[C@H](n2cc(NC(=O)c3coc(-c4ccnc(NCC5CC5)c4)n3)c(C(F)F)n2)CC1 (stereo partly drawn) [Hydrochloride of WX008]; 4.66
CC(C)(O)c1cc2nc([C@H]3CC[C@H](CN4CCC(C(F)(F)C(=O)Nc5cccc6c(C7CCC(=O)NC7=O)noc56)CC4)CC3)sc2cc1NC(=O)c1cccc(C(F)(F)F)n1 (stereo partly drawn) [Formate of WX023]; 31.3

A: CC(C)(O)c1cc2nc([C@H]3CC[C@H](CN4CCN(CC(=O)Nc5cccc6c(C7CCC(=O)NC7=O)noc56)CC4)CC3)sc2cc1NC(=O)c1cccc(C(F)(F)F)n1 (stereo partly drawn) [Formate of WX029]
B: O=C1CCC(c2noc3ccc4cc(NC(=O)CN5CCN(CC6CCC(n7cc(NC(=O)c8coc(-c9ccnc(NCC%10CC%10)c9)n8)c(C(F)F)n7)CC6)CC5)ccc4c23)C(=O)N1 (stereo not drawn) [Hydrochloride of WX015]
C: CC(C)(O)c1cc2nc([C@H]3CC[C@H](CN4CCN(CC(=O)Nc5ccc6c(ccc7onc(C8CCC(=O)NC8=O)c76)c5)CC4)CC3)sc2cc1NC(=O)c1cccc(C(F)(F)F)n1 (stereo partly drawn) [Formate of WX020]
Please list these in order of increasing DC50. Thank you! State the ranking by listing the labels in the requested order.
C, B, A
(C: 3.77 nM, B: 7.7 nM, A: 38.8 nM)
